target.system: T1, IGF1R-Fc (extracellular domain of human IGF1R aa 1-932 fused to hinge and constant regions of human IgG1) (human, UniProt P08069 31-932)
T1 construct: range 1-932; made in house by transient transfection, purified on Protein A; also called IGF-IR-Fc; not shown: hinge and constant regions of human IgG1
protocol.summary: SPR Biacore, IGF1R-Fc
Catalogue of binders with associated Kd

{"binder": "I1-GS10-E5-GSGC pegylated (designed binder, PEG on the Cys of the GSGC tail of E5, alternative clone of I1-GS10-E5 pegylated; also called I1-GS10-E5-GSGC(4)) MGVSDVPRDLEVVAATPTSLLISWSARLKVARYYRITYGETGGNSPVQEFTVPKNVYTATISGLKPGVDYTITVYAVTRFRDYQPISINYRTEIEKGSGSGSGSGSGSGSGSGSGSVSDVPRDLEVVAATPTSLLISWWAPVDRYQYYRITYGETGGNSPVQEFTVPRDVYTATISGLKPGVDYTITVYAVTDYKPHADGPHTYHESPISINYRTEGSGCHHHHHH", "unit.tag": "nM", "Kd": 0.25}
{"binder": "I1-GSGCGS8-E5 pegylated (designed binder, PEG on the Cys of the GSGCGS8 linker, alternative clone of I1-GS10-E5 pegylated; tail of first monomer EIEK (D to E); also called I1-GSGCGS8-E5(3)) MGVSDVPRDLEVVAATPTSLLISWSARLKVARYYRITYGETGGNSPVQEFTVPKNVYTATISGLKPGVDYTITVYAVTRFRDYQPISINYRTEIEKGSGCGSGSGSGSGSGSGSGSVSDVPRDLEVVAATPTSLLISWWAPVDRYQYYRITYGETGGNSPVQEFTVPRDVYTATISGLKPGVDYTITVYAVTDYKPHADGPHTYHESPISINYRTEHHHHHH", "unit.tag": "nM", "Kd": 0.29}
{"binder": "I1(S91C)-GS10-E5 pegylated (designed binder, PEG on Cys at position 91 of I1 (position of SEQ ID NO: 1), also called I1(S91C)-GS10-E5(7)) MGVSDVPRDLEVVAATPTSLLISWSARLKVARYYRITYGETGGNSPVQEFTVPKNVYTATISGLKPGVDYTITVYAVTRFRDYQPICINYRTEIEKGSGSGSGSGSGSGSGSGSGSVSDVPRDLEVVAATPTSLLISWWAPVDRYQYYRITYGETGGNSPVQEFTVPRDVYTATISGLKPGVDYTITVYAVTDYKPHADGPHTYHESPISINYRTEHHHHHH", "unit.tag": "nM", "Kd": 7.16}

Cited source for all entries: patent US20180037631A1
